Experiment: Plasma pharmacokinetics after single oral dose in ORA-Plus or SyrSpend SF (Example 6), LC-MS/MS
Type: in vivo, Sprague Dawley rats
Details: female, Sprague Dawley, rat, plasma, po, 24 mg/kg, G9: 2HCl, 24 mg/kg single oral dose, SyrSpend, rat plasma
measured.property: AUC(0-inf) (ng·h/mL)
// units = ng·h/mL; emit number, no label

Provide one value: measured AUC(0-inf) of CC(C)(C)CNCCn1c(Sc2cc3c(cc2I)OCO3)nc2c(N)ncnc21 [Compound 2 2HCl]
1240

---

Test: Plasma pharmacokinetics after single oral dose in ORA-Plus or SyrSpend SF (Example 6), LC-MS/MS
Format: in vivo, Sprague Dawley rats
Settings: female, Sprague Dawley, rat, plasma, po, 24 mg/kg, G3: 2HCl, 24 mg/kg single oral dose, ORA-plus, rat plasma
measured.property: half-life (h)
# output: bare number, implied unit h

Specify reported half-life for the compound shown: CC(C)(C)CNCCn1c(Sc2cc3c(cc2I)OCO3)nc2c(N)ncnc21 [Compound 2 2HCl]
2.34
